All figures here come from BindingDB's records for doi:10.1124/mol.107.035832.

test_target: Serine/threonine-protein kinase Chk2 [209-531,Q209M] (Homo sapiens, UniProt O96017, Q209M)
Construct: 209-531
Sequence (O96017 209-531 Q209M): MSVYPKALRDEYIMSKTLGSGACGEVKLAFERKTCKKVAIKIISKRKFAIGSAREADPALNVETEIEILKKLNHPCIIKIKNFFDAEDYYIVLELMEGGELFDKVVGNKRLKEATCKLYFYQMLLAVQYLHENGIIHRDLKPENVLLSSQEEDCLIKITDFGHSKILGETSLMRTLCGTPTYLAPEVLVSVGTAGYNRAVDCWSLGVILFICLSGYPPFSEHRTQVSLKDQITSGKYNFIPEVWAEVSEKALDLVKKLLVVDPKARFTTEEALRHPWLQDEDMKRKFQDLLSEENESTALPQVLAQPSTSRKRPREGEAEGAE
assay_protocol: In Vitro Protein Kinase Assay
condition_info: pH 7.5; 30 °C
Listed here are molecules together with their documented pIC50.
// pIC50 here means minus log10 of the molar concentration (mol/L)

>>> df
                                   molecule  measurement
0  CC(=NN=C(N)N)c1ccc(NC(=O)Nc2ccc(C(C)=NN=C(N)N)cc2)cc1 [diacetyldiphenylurea bisguanylhydrazone]         6.62

Quick check: pIC50 of NC1=NC(=O)C(=C2CCNC(=O)c3[nH]ccc32)N1 [B722657K110] ?
6.38

----------
Listed here are molecules together with their documented IC50.
test_target: Serine/threonine-protein kinase Chk2 [209-531,Q209M] (Homo sapiens, UniProt O96017, Q209M)
Construct: 209-531
assay_protocol: IMAP High-Throughput Screening
condition_info: pH 7.2; 23 °C

>>> df
                      given_smiles  measurement
0          CC(C=NNC(=N)N)=NNC(=N)N      > 20 µM
1  CNC(=O)Nc1ccc(C(C)=NNC(N)=S)cc1      > 20 µM

Now consider a different molecule.
Quick check: IC50 of CC(=NN=C(N)N)c1ccc(C(C)=NN=C(N)N)cc1 ?
> 20 µM

----------
test_target: Serine/threonine-protein kinase Chk2 [209-531,Q209M] (Homo sapiens, UniProt O96017, Q209M)
Construct: 209-531
assay_protocol: IMAP High-Throughput Screening
condition_info: pH 7.2; 23 °C
pIC50: −log10 of the molar value.
Listed here are compounds together with their documented pIC50.

# annotated cases, reported pIC50 shown
>>> print(df.to_string())
                                   compound  measurement
0  CC(=NN=C(N)N)c1ccc(NC(=S)Nc2ccccc2)cc1 [NSC 177940]       < 4.70
1  CC(=NN=C(N)N)c1cccc(NC(=O)Nc2cccc(C(C)=NN=C(N)N)c2)c1 [NSC 177944]       < 4.70

Quick check: pIC50 of CC(=NN=C(N)N)c1ccc(NC(=O)Nc2ccc(C(C)=NN=C(N)N)cc2)cc1 [diacetyldiphenylurea bisguanylhydrazone] ?
6.70

Quick check: pIC50 of CC(=NN=C(N)N)c1cccc(NC(=S)Nc2cccc(C(C)=NN=C(N)N)c2)c1 [NSC 177941] ?
< 4.70
